Catalogue of compounds with associated Emax
Biological target: M4 muscarinic receptor (Homo sapiens, UniProt P08173)
Construct: expressed in transfected cells; host or cells: CHO (M4-CHO)
Sequence (P08173 1-479): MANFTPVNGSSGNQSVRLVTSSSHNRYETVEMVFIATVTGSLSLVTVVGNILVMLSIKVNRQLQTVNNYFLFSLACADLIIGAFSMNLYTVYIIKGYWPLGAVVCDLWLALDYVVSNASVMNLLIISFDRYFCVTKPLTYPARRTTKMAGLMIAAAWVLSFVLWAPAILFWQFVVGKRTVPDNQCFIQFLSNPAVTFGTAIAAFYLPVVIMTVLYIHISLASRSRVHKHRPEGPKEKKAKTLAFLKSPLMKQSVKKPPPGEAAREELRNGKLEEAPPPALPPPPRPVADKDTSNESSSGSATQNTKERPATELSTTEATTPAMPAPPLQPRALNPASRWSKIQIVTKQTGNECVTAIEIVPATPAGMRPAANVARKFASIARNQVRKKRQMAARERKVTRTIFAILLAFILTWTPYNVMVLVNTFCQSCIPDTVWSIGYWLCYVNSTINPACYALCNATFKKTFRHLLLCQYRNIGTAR
Assay: Functional mobilization of intracellular calcium (FLIPR), M4-CHO cells
Type: cell-based
Conditions: 100% efficacy is the maximum response obtained with the Carbachol control

Input: State its Emax for this compound: COC(=O)N1CC[C@H](CN2CCC3(CC2)CN(C(=O)N(C)C)c2ccccc23)C1
Output: 25 to 100%

Input: Could you please provide reported Emax for COC(=O)N1CCC(N2CCC3(CC2)CN(C(=O)N(C)C)c2ccccc23)CC1 ? Thanks!
Output: 25 to 100%

Input: Return Emax for the following compound: COC(=O)N1CCCC(N2CCC3(CC2)CN(C(=O)N(C)C)c2ccccc23)CC1 (centres unmarked)
Output: 25 to 100%
